Test system: Cryptococcus neoformans
Procedure details: Antifungal activity against Cryptococcus neoformans ATCC 32719 assessed as inhibition of growth incubated for 24 hrs by two-fold serial dilution method
Assay type: functional
Rule: MIC below 30 µg/mL gives yes (1). Equal to or above 30 µg/mL gives no (0).

Exam item: For this compound, is MIC lower than 30 µg/mL? CCCCNC(=O)C1CCN(CC(=O)Nc2ccc3c(c2)NC(=O)C2(CCNC2=O)C3)CC1 (racemic)
Marked response: no (0)

Exam item: Quick one: CCCCN(CCCC)C(=O)/C=C/C(=O)Nc1ccc2c(c1)NC(=O)C1(CCNC1=O)C2 (racemic)
Marked response: no (0)

Exam item: Another: O=C(CN1CCC(C(=O)Nc2ccc(Br)cc2)CC1)Nc1ccc2c(c1)NC(=O)C1(CCNC1=O)C2 (racemic)
Marked response: yes (1)

Exam item: Input CCCCCNC(=O)/C=C/C(=O)Nc1ccc2c(c1)NC(=O)C1(CCNC1=O)C2 (racemic)
Marked response: no (0)

Exam item: Try Cc1ccc(NC(=O)/C=C/C(=O)Nc2ccc3c(c2)NC(=O)C2(CCNC2=O)C3)cc1 (racemic) next.
Marked response: no (0)

Exam item: Try CCCCCCNC(=O)C1CCN(CC(=O)Nc2ccc3c(c2)NC(=O)C2(CCNC2=O)C3)CC1 (racemic) next.
Marked response: no (0)

Exam item: Ok, now O=C(/C=C/C(=O)Nc1ccccc1Br)Nc1ccc2c(c1)NC(=O)C1(CCNC1=O)C2 (racemic)
Marked response: yes (1)

Exam item: Another: O=C(CN1CCC(C(=O)Nc2cccc3ccccc23)CC1)Nc1ccc2c(c1)NC(=O)C1(CCNC1=O)C2 (racemic)
Marked response: no (0)

Exam item: Let us now turn to CCCN(CCC)C(=O)/C=C/C(=O)Nc1ccc2c(c1)NC(=O)C1(CCNC1=O)C2 (racemic)
Marked response: no (0)

Exam item: Further, for CCCNC(=O)C1CCN(CC(=O)Nc2ccc3c(c2)NC(=O)C2(CCNC2=O)C3)CC1 (racemic) ?
Marked response: no (0)

Exam item: Repeat with O=C(/C=C/C(=O)Nc1ccc2c(c1)NC(=O)C1(CCNC1=O)C2)Nc1ccc(Cl)cc1 (racemic)
Marked response: no (0)

Exam item: Please do the same for COc1ccc(NC(=O)/C=C/C(=O)Nc2ccc3c(c2)NC(=O)C2(CCNC2=O)C3)cc1 (racemic) as well.
Marked response: no (0)

Exam item: Check O=C(CN1CCC(C(=O)Nc2ccc(F)cc2)CC1)Nc1ccc2c(c1)NC(=O)C1(CCNC1=O)C2 (racemic) too.
Marked response: no (0)

Exam item: Next compound: O=C(/C=C/C(=O)Nc1ccc2c(c1)NC(=O)C1(CCNC1=O)C2)NCc1ccccc1 (racemic)
Marked response: yes (1)

Exam item: # iterate: Cc1ccc(NC(=O)C2CCN(CC(=O)Nc3ccc4c(c3)NC(=O)C3(CCNC3=O)C4)CC2)cc1C (racemic)
Marked response: no (0)

Exam item: How about this compound: O=C(/C=C/C(=O)Nc1cccc2ccccc12)Nc1ccc2c(c1)NC(=O)C1(CCNC1=O)C2 (racemic)
Marked response: yes (1)
